assay overview: Half life in ICR mouse at 10 mg/kg, po measured upto 24 hrs by LC-MS/MS analysis
Assay type: ADME, organism-based
settings: in vivo
measured parameter: half-life (h)
Entry rule: numbers only, all in h.

Could you please provide reported half-life for `CC(C)(O)c1csc(S(=O)(=O)NC(=O)Nc2c(-c3cccc(Cl)c3Cl)ccc3c2CCC3)c1` ? Thanks! 1.86

###

assay overview: AUC (0 to t) in ICR mouse at 10 mg/kg, po measured upto 24 hrs by LC-MS/MS analysis
Type: ADME, organism-based
settings: in vivo
measured parameter: AUC(0-t) at 24 h

Could you please provide reported AUC(0-t) at 24 h for `CC(C)(O)c1csc(S(=O)(=O)NC(=O)Nc2c(-c3cccc(Cl)c3Cl)ccc3c2CCC3)c1` ? Thanks! 9710 ng·h/mL

Data provenance is ChEMBL document CHEMBL6120950.
